# Test system: WHHL rabbit aortic tissue (intima)
# test summary: Resected WHHL rabbit aortic tissue peptide binding assay
# particulars: Exp217 (FIG. 19); five to seven tissue samples per peptide
Ends that are not written are not given here.
measured parameter: positive binding / staining on WHHL tissue samples

Study these solved cases before continuing.
| substance | test result |
| --- | --- |
| SSLPAPPWPLRG [Peptide 6] | slight staining |
| SIGYPLP [Peptide 13, reference compound] | stained |
| CKSDANSHC [Peptide 2] | stained |
| KSLSRHDHIHHH [Peptide 16] | stained |
| TSPQTKDC [Peptide 7] | slight staining |
| CKQSPPSMC [Peptide 14] | stained |

We next turn to a different substance, shown below.
Which positive binding / staining on WHHL tissue samples reading was recorded for the substance CAPGPSKSC (cysteine pairing not given here; also: N-terminal biotin or C-terminal FLAG, which one not given here) [Peptide 12] ? stained
